- Test system: HEK-293T
- Run Description: Multiplex assay against HEK293T
- Assay type: toxicity, cell-based
- Details: human, 12 h, 1 µM, compound concentration 1 uM, replicate 1
Each record here notes measured Population Tubulin-Different-Phenotype (%).
Give a bare numeral; the unit % is implied.

Previously resolved entries follow.
In [3]: df
Out[3]:
                                   molecule  display_unit  result_number
0  Cc1cc(=O)n(C)c2cc(N3C(=O)CC[C@H](NS(=O)(=O)CC(C)C)[C@H]3c3ccc(Cl)cc3)ccc12             %             32
1  Nc1nc(CC(=O)Nc2ccc(CCNC[C@H](O)c3ccccc3)cc2)cs1             %             19
2  CCCCC[C@H](O)/C=C/[C@H]1[C@H](O)CC(=O)[C@@H]1CCCCCCC(=O)O             %             28

q: Quote Population Tubulin-Different-Phenotype (%) reported for "CC(C)(O)C(=O)N1CCN(c2ccc(C(F)(F)F)c(C3=C(c4c[nH]c5ccccc45)C(=O)NC3=O)c2)CC1" please.
a: 28

q: Answer with the recorded Population Tubulin-Different-Phenotype (%) for the molecule listed here: "Cc1sc2c(c1C)C(c1ccc(Cl)cc1)=N[C@H](CC(=O)OC(C)(C)C)c1nnc(C)n1-2"
a: 32

q: Fill in reported Population Tubulin-Different-Phenotype (%) for this entry: "COc1cc2nc(N3CCN(C(=O)COc4c(OC)cccc4C(C)C)CC3)nc(N)c2cc1OC.Cl.Cl"
a: 23

q: Please supply the value of reported Population Tubulin-Different-Phenotype (%) for the item "CCCCCCNC(=O)Nc1ccc(S(=O)(=O)Nc2ccc(CCNC[C@H](O)COc3ccc(O)cc3)cc2)cc1"
a: 28

q: Quote Population Tubulin-Different-Phenotype (%) reported for "C[C@@H]1CC(=O)Nc2cccc(-c3ccc4c(c3)c(-c3cnn(C)c3)nn4C)c2N1" please.
a: 39

---

- System: U2OS
- Run Description: Multiplex assay against U2OS
- Assay type: toxicity, cell-based
- Details: human, 24 h, 10 µM, compound concentration 10 uM, replicate 1
As shown below, each of these compounds has a reported Population Fragmented Nuclei (%) value.
Numbers only; they are read as %.

Here are 3 compounds together with their reported answers.
Compound	Display Unit	Population Fragmented Nuclei (%)
COC(c1ccccc1)(c1ccccc1)[C@H](Oc1nc(C)cc(C)n1)C(=O)O	%	25
CCC(=O)OCC(=O)[C@@]1(OC(=O)CC)[C@@H](C)C[C@H]2[C@@H]3CCC4=CC(=O)C=C[C@]4(C)[C@@]3(Cl)[C@@H](O)C[C@@]21C [BECLOMETHASONE DIPROPIONATE]	%	35
COc1cc2nc(N3CCN(C(=O)COc4c(OC)cccc4C(C)C)CC3)nc(N)c2cc1OC.Cl.Cl	%	30

q: Indicate its recorded Population Fragmented Nuclei (%); the compound in question is "CC(C)C[C@H](CO)Nc1nc(S[C@@H](C)c2ccccc2)nc2nc(N)sc12"
a: 20

q: // fetch Population Fragmented Nuclei (%) given entry "Cc1cc(=O)n(C)c2cc(N3C(=O)CC[C@H](NS(=O)(=O)CC(C)C)[C@H]3c3ccc(Cl)cc3)ccc12"
a: 20

q: Answer with reported Population Fragmented Nuclei (%) of "COc1ccc2c(c1OCc1ccccc1)C[C@@H](C(=O)O)N(C(=O)C(c1ccccc1)c1ccccc1)C2"
a: 27

q: Consider the compound "O=C(Nc1cc(-c2ccccc2)nn1-c1ccccc1F)c1ccc([N+](=O)[O-])cc1" . State its measured Population Fragmented Nuclei (%).
a: 25

---

- System: U2OS
- Run Description: Multiplex assay against U2OS
- Assay type: toxicity, cell-based
- Details: human, 24 h, 1 µM, compound concentration 1 uM, replicate 1
Please use satisfied for Population Mitochondria Different-Phenotype (%) under 3% and not satisfied for everything else, ties included.

Compound	Qualitative Label
Cc1cc(O)c(-c2ccc([C@@H](C)CN(C)C)cc2)c2c1[nH]c(=O)c1sccc12	not satisfied
CCCCC[C@H](O)/C=C/[C@H]1[C@H](O)CC(=O)[C@@H]1CCCCCCC(=O)O [ALPROSTADIL]	satisfied
Cl.Cl.OCCOCCN1CCN(C(c2ccccc2)c2ccc(Cl)cc2)CC1 (centres undefined) [HYDROXYZINE HYDROCHLORIDE]	not satisfied
Cc1nn(C)c2nc(NNC(=O)Nc3cc(Cl)nc(Cl)c3)cc(C(C)C)c12	satisfied
O=C(O)CCC/C=C\CC1C(O)CC(O)C1/C=C/C(O)COc1cccc(Cl)c1 (centres undefined) [CLOPROSTENOL]	satisfied
Nc1nc(-c2ccco2)c2cnn(Cc3ccccc3F)c2n1	satisfied
CCC(=O)OCC(=O)[C@@]1(OC(=O)CC)[C@@H](C)C[C@H]2[C@@H]3CCC4=CC(=O)C=C[C@]4(C)[C@@]3(Cl)[C@@H](O)C[C@@]21C [BECLOMETHASONE DIPROPIONATE]	not satisfied
COc1ccc2[nH]c(I)c(CCNC(C)=O)c2c1 [IODOMELATONIN]	satisfied

q: Lab log: compare recorded Population Mitochondria Different-Phenotype (%) with 3%; is it strictly lower for CC(C)(C)c1ccc(CSc2cnn(C(C)(C)C)c(=O)c2Cl)cc1 [PYRIDABEN] ?
a: satisfied

q: Given COc1cc(Nc2ncc3c(n2)-c2ccc(Cl)cc2C(c2c(F)cccc2OC)=NC3)ccc1C(=O)O [ALISERTIB] , is recorded Population Mitochondria Different-Phenotype (%) strictly lower than 3%?
a: not satisfied

q: Does the reported Population Mitochondria Different-Phenotype (%) of the following compound sit strictly below 3%? CC(C)C[C@H](CO)Nc1nc(S[C@@H](C)c2ccccc2)nc2nc(N)sc12 [AZD-8797]
a: satisfied

---

- System: Fibroblast
- Run Description: Multiplex assay against human fibroblast
- Assay type: toxicity, cell-based
- Details: 24 h, 1 µM, compound concentration 1 uM, replicate 2
Measurement Name: Population Fragmented Nuclei (%)
A complete answer gives the number followed by the unit.

Take a look at these entries with their results.
Compound	Result
O=c1ccc2ccc(OCCCCN3CCN(c4cccc5sccc45)CC3)cc2[nH]1 [BREXPIPRAZOLE]	32%
CCC(=O)OCC(=O)[C@@]1(OC(=O)CC)[C@@H](C)C[C@H]2[C@@H]3CCC4=CC(=O)C=C[C@]4(C)[C@@]3(Cl)[C@@H](O)C[C@@]21C [BECLOMETHASONE DIPROPIONATE]	30%
CCn1c(-c2nc3cc(C(=O)N4CCCC(N)C4)ccc3n2C)cc2ccccc21.Cl (configuration not stated)	27%
O=C(Nc1cc(-c2ccccc2)nn1-c1ccccc1F)c1ccc([N+](=O)[O-])cc1	25%
COc1ccc2c(c1OCc1ccccc1)C[C@@H](C(=O)O)N(C(=O)C(c1ccccc1)c1ccccc1)C2 [OLODANRIGAN]	21%

q: Provide measured Population Fragmented Nuclei (%) value, entry: Cc1cc(-c2ccc3c(c2)CC[C@H]3N2CC3(CCN(C(=O)Cc4cn5cc(C)sc5n4)CC3)C2)ncn1 [PF-5190457]
a: 23%

q: Specify measured Population Fragmented Nuclei (%) for Nc1nc(CC(=O)Nc2ccc(CCNC[C@H](O)c3ccccc3)cc2)cs1 [MIRABEGRON] .
a: 27%

q: Quickly give me recorded Population Fragmented Nuclei (%) for Cc1c(Cc2ccc3ccccc3n2)c2cc(F)ccc2n1CC(=O)O [TIMAPIPRANT]
a: 30%

q: Supply reported Population Fragmented Nuclei (%) belonging to this compound: CN1CCN2c3ccccc3Cc3ccccc3C2C1.Cl (configuration not stated) [MIANSERIN HYDROCHLORIDE]
a: 30%

q: Provide only the value of recorded Population Fragmented Nuclei (%) for C=CCN1C[C@H](C(=O)N(CCCN(C)C)C(=O)NCC)C[C@@H]2c3cccc4[nH]cc(c34)C[C@H]21 [CABERGOLINE]
a: 24%

q: Please indicate Population Fragmented Nuclei (%) recorded for "Cc1nn(C)c2nc(NNC(=O)Nc3cc(Cl)nc(Cl)c3)cc(C(C)C)c12"
a: 21%

q: Complete the entry with Population Fragmented Nuclei (%) for Cc1cc(NC(=O)NCCN2CCC(O)(Cc3ccccc3)CC2)c2ccccc2n1 [PALOSURAN]
a: 27%

q: Note down Population Fragmented Nuclei (%) recorded for "Cc1sc2c(c1C)C(c1ccc(Cl)cc1)=N[C@H](CC(=O)OC(C)(C)C)c1nnc(C)n1-2"
a: 29%

q: Kindly indicate its recorded Population Fragmented Nuclei (%). Item: "C[C@@H]1CC(=O)Nc2cccc(-c3ccc4c(c3)c(-c3cnn(C)c3)nn4C)c2N1"
a: 29%

q: Specify reported Population Fragmented Nuclei (%) for the compound shown: "S=C(NCCCc1c[nH]cn1)NCCCN(Cc1ccc(Cl)c(Cl)c1)c1ccc(Br)cn1"
a: 30%

q: Dear colleague, please send me the reported Population Fragmented Nuclei (%) for "C[C@H](NC(=O)CNC(=O)c1cccc(Cl)c1)c1ccccc1" when you can.
a: 30%

q: Tell me measured Population Fragmented Nuclei (%) for "CN1CCN(c2ccc(Nc3c4ccccc4nc4ccccc34)cc2)CC1.Cl.Cl.O" please.
a: 29%
